# experimental_system: human Claudin-6 (CLDN6) (human) (UniProt P56747)
# assay_explanation: FACS, 0.3 ug Ab, 293T clone expressing human CLDN6 (2nd Ab only 768.07)
endpoint_name: FACS fluorescence
Numbers only.

State the recorded FACS fluorescence for this entry: AB18-chim (antibody, V domains shown) VH: QVQLKQSGPELEKPGASVKISCKASGYSFTGYNMNWVKQSNGKSLEWIGNIDPYYGGSTYNQKFTGKATLTVDKSSSTAYMQLKSLTSEDSAVYYCARERSGYVFSAMDYWGQGTSVTVSS VL: NIMMTQSPSSLAVSAGEKVTMSCKSSQSVLFSSNQKNYLAWYQQKPGQSPRLLIYWASTRESGVPDRFTGSGSGTDFTLTISNVQAEDLAVYYCHQYLSSRTFGAGTKLELK
73800
